Values from the supplement of paper PMC9233669

- System: biotinyl-Met-oxazolone
- ASSAY_REMARKS: self-aminoacylation, catalytic enhancement (BMO) (fold over background); higher = more active; k-Seq, kA / k0A0; sequences stand for … in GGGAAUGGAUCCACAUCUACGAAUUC…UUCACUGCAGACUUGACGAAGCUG
Fewer inactive variants are shown than the library holds.
Outcome label depends on self-aminoacylation relative to 2: at/above gives Condition met, below gives Condition not met.

Answered examples (4):
| SEQUENCE_CODE | TESTED_ON | GROUP |
| --- | --- | --- |
| AUGACCCUGGUCGUCGAGUGA [Fam2.1 aminoacylation ribozyme variant] | biotinyl-Met-oxazolone | Condition not met |
| CUACUUCAAACAAUCCGUCCG [Fam1A.1 aminoacylation ribozyme variant] | biotinyl-Met-oxazolone | Condition not met |
| CUACUUCAAACAAGCGUUCUG [Fam1A.1 aminoacylation ribozyme variant] | biotinyl-Met-oxazolone | Condition not met |
| CUACUUCAAACAACCAGUCUG [Fam1A.1 aminoacylation ribozyme variant] | biotinyl-Met-oxazolone | Condition not met |

Decide: self-aminoacylation of GUUCACCUACGUCAUCGGGUG [Fam2.2 aminoacylation ribozyme variant] >= 2?
Condition met

Decide: self-aminoacylation of AGUACCCUGGUCAUCGAGCGA [Fam2.1 aminoacylation ribozyme variant] >= 2?
Condition met

Decide: self-aminoacylation of AUUAACCUAGGUCAUAGGGUG [Fam2.2 aminoacylation ribozyme variant] >= 2?
Condition not met

Decide: self-aminoacylation of GUUCUUCAAACAAUCGGUCUG [Fam1A.1 aminoacylation ribozyme variant] >= 2?
Condition not met

Decide: self-aminoacylation of AAAUUGGCUAAUAGUCGCAAG [Fam3.1 aminoacylation ribozyme variant] >= 2?
Condition not met

Decide: self-aminoacylation of AAGUUUUCGAAUAGUCGCAAG [Fam3.1 aminoacylation ribozyme variant] >= 2?
Condition not met

Decide: self-aminoacylation of GUUACCCUGGUUAUCGAGUGA [Fam2.1 aminoacylation ribozyme variant] >= 2?
Condition met

Decide: self-aminoacylation of AAGUUUGCUAAUAGUCUCGAG [Fam3.1 aminoacylation ribozyme variant] >= 2?
Condition not met

Decide: self-aminoacylation of AAGUUUGCUAAUAGUCGCCCG [Fam3.1 aminoacylation ribozyme variant] >= 2?
Condition met

Decide: self-aminoacylation of AUGUUUGCUGAUAGUCGCAAG [Fam3.1 aminoacylation ribozyme variant] >= 2?
Condition not met

Decide: self-aminoacylation of AUUACCCAGAUCAUCGAGUGA [Fam2.1 aminoacylation ribozyme variant] >= 2?
Condition met

* * *

- System: biotinyl-Leu-oxazolone
- ASSAY_REMARKS: self-aminoacylation, catalytic enhancement (BLO) (fold over background); higher = more active; k-Seq, kA / k0A0; sequences stand for … in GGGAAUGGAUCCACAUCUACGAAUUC…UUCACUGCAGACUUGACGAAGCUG
Fewer inactive variants are shown than the library holds.
# class assignment by measured self-aminoacylation: small value (below 1), mid value (1 to below 4), large value (4 or more)

Answered examples (2):
| SEQUENCE_CODE | GROUP |
| --- | --- |
| CUACUUCAAACAAUCGGGCCG [Fam1A.1 aminoacylation ribozyme variant] | mid value |
| AUUCACCUCGGUCAUCGGAUG [Fam2.2 aminoacylation ribozyme variant] | small value |

Pick a category. Item: AUUCAUCUAAGUCAUCGGGUG [Fam2.2 aminoacylation ribozyme variant]
large value

Pick a category. Item: UAUUUUGCUAAUAGUCGCAAG [Fam3.1 aminoacylation ribozyme variant]
mid value

Pick a category. Item: AUUCUCCUAGGUCAUCGCGUG [Fam2.2 aminoacylation ribozyme variant]
large value

Pick a category. Item: CUACUACAAACAAUCUGUCUG [Fam1A.1 aminoacylation ribozyme variant]
small value

Pick a category. Item: ACUCACCUAGGUUAUCGGGUG [Fam2.2 aminoacylation ribozyme variant]
large value

Pick a category. Item: AAGUUCGCUAAUAGUCGCAAG [Fam3.1 aminoacylation ribozyme variant]
mid value

Pick a category. Item: CUACUUGGAACAAUCGGUCUG [Fam1A.1 aminoacylation ribozyme variant]
small value

Pick a category. Item: CAACUUCAAACAAUCGGUCUG [Fam1A.1 aminoacylation ribozyme variant]
mid value

Pick a category. Item: AUUCACCUAGGUUAUCCGGUG [Fam2.2 aminoacylation ribozyme variant]
large value

Pick a category. Item: CUACUUCAAACAAUCGGGGUG [Fam1A.1 aminoacylation ribozyme variant]
large value

* * *

- Test system: biotinyl-Met-oxazolone
- ASSAY_REMARKS: self-aminoacylation, catalytic enhancement (BMO) (fold over background); higher = more active; k-Seq, kA / k0A0; sequences stand for … in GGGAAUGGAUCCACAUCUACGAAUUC…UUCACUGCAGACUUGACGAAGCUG
This sample holds only a part of the variants without activity.
MEASURED_METRIC: self-aminoacylation
One number for each entry.

Each of the following entries comes with a recorded value; kindly state self-aminoacylation for each.
1. CUACUUCAAGCAACCGGUCUG [Fam1A.1 aminoacylation ribozyme variant]
2. AUUCUCCUAGGUCACCGGGUG [Fam2.2 aminoacylation ribozyme variant]
3. AAGUUUGCUACUAGUCGCAUG [Fam3.1 aminoacylation ribozyme variant]
4. CUACUUCAAACAAUCGGGCUU [Fam1A.1 aminoacylation ribozyme variant]
5. CUACUUUAAACAGUCGGUCUG [Fam1A.1 aminoacylation ribozyme variant]
6. CUACUUCGAACAAUCCGUCUG [Fam1A.1 aminoacylation ribozyme variant]
7. ACACACCUAGGUCAUCGGGUG [Fam2.2 aminoacylation ribozyme variant]
8. CCAUACUUCAAGGAAUCGGUC [Fam1B.1 aminoacylation ribozyme variant]

1. 0.943
2. 7.25
3. 0.717
4. 1.12
5. 0.765
6. 0.738
7. 3.51
8. 1.06

* * *

- System: biotinyl-Trp-oxazolone
- ASSAY_REMARKS: self-aminoacylation, catalytic enhancement (BWO) (fold over background); higher = more active; k-Seq, kA / k0A0; sequences stand for … in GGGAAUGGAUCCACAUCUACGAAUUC…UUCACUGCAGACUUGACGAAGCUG
Variants at the floor of the assay were thinned out.
# class assignment by measured self-aminoacylation: low value (below 2), medium value (2 to below 4), high value (4 or more)

| SEQUENCE_CODE | TESTED_ON | GROUP |
| --- | --- | --- |
| CUACUCCGAACAAUCGGUCUG [Fam1A.1 aminoacylation ribozyme variant] | biotinyl-Trp-oxazolone | low value |
| AUUACCCUGGUCAGCCAGUGA [Fam2.1 aminoacylation ribozyme variant] | biotinyl-Trp-oxazolone | high value |
| CUGCUUCAGACAAUCGGUCUG [Fam1A.1 aminoacylation ribozyme variant] | biotinyl-Trp-oxazolone | low value |
| AUCCACCUAGGUCAUCAGGUG [Fam2.2 aminoacylation ribozyme variant] | biotinyl-Trp-oxazolone | medium value |
| CCACACUUCGAGCAAGCGGUC [Fam1B.1 aminoacylation ribozyme variant] | biotinyl-Trp-oxazolone | low value |

Pick a category. Item: AAAUUGGCUAAUAGUCGCAAG [Fam3.1 aminoacylation ribozyme variant]
medium value

Pick a category. Item: GUUCACCUAGGUAAUCGGGUG [Fam2.2 aminoacylation ribozyme variant]
medium value

Pick a category. Item: AAGUUUGCUAAUAGUCACUAG [Fam3.1 aminoacylation ribozyme variant]
low value

Pick a category. Item: AUUCAUCUAAGUCAUCGGGUG [Fam2.2 aminoacylation ribozyme variant]
high value

Pick a category. Item: AAGUUUGCCAAUAGUCGCAAU [Fam3.1 aminoacylation ribozyme variant]
medium value

Pick a category. Item: CCAAACUUCAAGAAAUCGGUC [Fam1B.1 aminoacylation ribozyme variant]
high value

Pick a category. Item: UAGUUUGCUAAUAUUCGCAAG [Fam3.1 aminoacylation ribozyme variant]
low value

Pick a category. Item: CUACGUCAAACAAUCGGUCUC [Fam1A.1 aminoacylation ribozyme variant]
low value

Pick a category. Item: CUACUUCAGACAAUCGGUUUG [Fam1A.1 aminoacylation ribozyme variant]
low value

Pick a category. Item: CCACACUUGACGCAAUCGGUC [Fam1B.1 aminoacylation ribozyme variant]
low value

Pick a category. Item: GAGUUCGCUAAUAGUCGCAAG [Fam3.1 aminoacylation ribozyme variant]
medium value

Pick a category. Item: AUACACCUAGGUCAUCGCGUG [Fam2.2 aminoacylation ribozyme variant]
high value

Pick a category. Item: GAGUUUGCUAAUAGUCGUAAG [Fam3.1 aminoacylation ribozyme variant]
high value

Pick a category. Item: AUUCACGUAGGUCAUCUGGUG [Fam2.2 aminoacylation ribozyme variant]
high value

Pick a category. Item: UCUCACCUAGGUCAUCGGGUG [Fam2.2 aminoacylation ribozyme variant]
medium value

Pick a category. Item: AUUCACUUAGGUCAACGGGUG [Fam2.2 aminoacylation ribozyme variant]
medium value

Pick a category. Item: CCCCACUUCAAGCAAUCGGUG [Fam1B.1 aminoacylation ribozyme variant]
high value

Pick a category. Item: CCAUACUACAAGCAAUCGGUC [Fam1B.1 aminoacylation ribozyme variant]
low value
